- System: human colic adenocarcinoma cell line HT29
- Protocol Description: HT29 cell survival (MTT assay) after 24 h incubation, with or without light irradiation
- Measurement Context: 50% effect; with light
Metric Name: Photocytotoxicity HT 29, concentration giving 50%

// molecule OC[C@H]1O[C@H](SCCOCCOc2ccc(-c3c4nc(c(-c5ccc(OCCOCCS[C@H]6O[C@H](CO)[C@@H](O)[C@H](O)[C@@H]6O)cc5)c5ccc([nH]5)c(-c5ccc(OCCOCCS[C@H]6O[C@H](CO)[C@@H](O)[C@H](O)[C@@H]6O)cc5)c5nc(c(-c6ccccc6)c6ccc3[nH]6)C=C5)C=C4)cc2)[C@@H](O)[C@@H](O)[C@@H]1O [Compound 68, TPP(p-O-DEG-S-α-Mann)3] , assay human colic adenocarcinoma cell line HT29, Photocytotoxicity HT 29, concentration giving 50% value: 50% 4 μg/ml

----------
- Test system: RBY-79 (indifferently named Y-79) cells
- Protocol Description: RBY-79 (Y79) cell cytotoxicity / photocytotoxicity
- Measurement Context: Homo sapiens, Y79, read-out: Y79 IC50 (μM) without light
Metric Name: IC50

Lab note: Oc1cccc(-c2c3nc(c(-c4cccc(O)c4)c4ccc([nH]4)c(-c4cccc(O)c4)c4nc(c(-c5cccc(O)c5)c5ccc2[nH]5)CC4)C=C3)c1 [m-THPC, reference compound] gave IC50 of > 10 µM

----------
- Tested on: RBY-79 (indifferently named Y-79) cells
- Protocol Description: RBY-79 (Y79) cell cytotoxicity / photocytotoxicity
- Measurement Context: 50% effect; with light
Metric Name: Photocytotoxicity RBY-79, concentration giving 50%

Compound | Obs Value
O[C@@H]1[C@@H](O)[C@H](Sc2c(F)c(F)c(-c3c4nc(c(-c5c(F)c(F)c(S[C@@H]6OC[C@@H](O)[C@H](O)[C@H]6O)c(F)c5F)c5ccc([nH]5)c(-c5c(F)c(F)c(S[C@@H]6OC[C@@H](O)[C@H](O)[C@H]6O)c(F)c5F)c5nc(c(-c6c(F)c(F)c(S[C@@H]7OC[C@@H](O)[C@H](O)[C@H]7O)c(F)c6F)c6ccc3[nH]6)C=C5)C=C4)c(F)c2F)OC[C@H]1O [Compound 27, TPP F4(p-S-β-XylOH)4] | 50% 1.6 μg/ml

Shift focus to the following entry.
Lab note: OC[C@H]1O[C@H](OCCOCCOc2ccc(-c3c4nc(c(-c5ccc(OCCOCCO[C@H]6O[C@H](CO)[C@@H](O)[C@H](O)[C@@H]6O)cc5)c5ccc([nH]5)c(-c5ccc(OCCOCCO[C@H]6O[C@H](CO)[C@@H](O)[C@H](O)[C@@H]6O)cc5)c5nc(c(-c6ccccc6)c6ccc3[nH]6)C=C5)C=C4)cc2)[C@@H](O)[C@@H](O)[C@@H]1O [Compound 67, TPP(p-O-DEG-O-α-Mann)3] gave Photocytotoxicity RBY-79, concentration giving 50% of 50% at 1.5 μg/ml,
